In this section we review reported pIC50 values for a set of molecules.
- Tested on: Human immunodeficiency virus 3
- Method Description: The compound was tested for inhibition against HIV-III B from C8 166 cell lines
- Type: functional, organism-based
- Settings: Human immunodeficiency virus 1, IIIB, C8166
pIC50: −log10 of the molar value.
Measurement Kind: pIC50

1. CCC1(c2cccc(OC)c2)Oc2ccccc2-n2cccc2C1=O (stereo not drawn): 5.15
2. CCC1(c2cc(F)cc(F)c2)Oc2ccccc2-n2cccc2C1=O (stereo not drawn): 4.77
3. CCC1(c2cccc(C)c2)Oc2ccccc2-n2cccc2C1=O (stereo not drawn): 4.28

----------
- Test system: C8166
- Method Description: The compound was tested for inhibition against HIV-III B from C8 166 cell lines.
- Assay type: functional, cell-based
- Settings: Homo sapiens
In this section we review reported EC50 values for a set of molecules.
Measurement Kind: EC50 (µM)

1) CCC1(c2ccccc2)Oc2ccccc2-n2cccc2C1=O (stereo not drawn): 0.8
2) CCC1(c2cccc(C)c2)Oc2cccnc2-n2cccc2C1=O (stereo not drawn): 0.27
3) CCC1(c2ccccc2)Oc2cccnc2-n2cccc2C1=O (stereo not drawn): 0.054
